test system: U2OS; test: Multiplex assay against U2OS; assay type: toxicity, cell-based; details: human, 48 h, 10 µM, compound concentration 10 uM, replicate 2
QUANTITY KIND: Population Fragmented Nuclei (%)
Numbers only, in %.

Prompt: Which Population Fragmented Nuclei (%) value belongs to CCn1c(-c2nonc2N)nc2cnc(Oc3cccc(NC(=O)c4ccc(OCCN5CCOCC5)cc4)c3)cc21 [GSK-269962A] ?
Response: 13

Prompt: Which Population Fragmented Nuclei (%) value belongs to "CC(C)N1CCC(C)(C)c2cc(C#Cc3ccc(C(=O)O)cc3)ccc21" ?
Response: 44

Prompt: Which Population Fragmented Nuclei (%) value belongs to "COc1ccc(NS(=O)(=O)c2sc3ccc(Cl)cc3c2C)cc1N1CCNCC1.Cl" ?
Response: 17

Prompt: Which Population Fragmented Nuclei (%) value belongs to "CNc1oc(-c2cccc3ccccc23)nc1C#N" ?
Response: 57

Prompt: Which Population Fragmented Nuclei (%) value belongs to CC(C)Oc1ccc(C(=O)N[C@H](CNC(=O)CN(C)C)Cc2ccc(-c3cn4cccc([C@H](C)O)c4n3)cc2)cc1Cl [GSK-923295A] ?
Response: 9

Dear colleague, could you please provide Population Fragmented Nuclei (%) for the molecules listed below?
1. CCCn1c(=O)c2[nH]c(C34CC5CC(CC3C5)C4)nc2n(CCC)c1=O
2. CCC(=O)O[C@]1(C(=O)SCF)[C@H](C)C[C@H]2[C@@H]3C[C@H](F)C4=CC(=O)C=C[C@]4(C)[C@@]3(F)[C@@H](O)C[C@@]21C [FLUTICASONE PROPIONATE]
3. Cl.Cl.Nc1ncnc2c1c(-c1cccc(OCc3ccccc3)c1)cn2[C@H]1C[C@@H](CN2CCC2)C1

Response:
1: 19; 2: 4; 3: 21

---

system: U2OS; experiment: Multiplex assay against U2OS; type: toxicity, cell-based; details: human, 48 h, 10 µM, compound concentration 10 uM, replicate 2
Could you please report measured Population Apoptotic (%) for the items listed next?
Give bare numbers, in %.

Dear colleague, could you please provide Population Apoptotic (%) for the compounds listed below?
1. Nc1nc2c(c(N3CCNCC3)n1)CCC1=C2[C@@H]2CCCC[C@@H]2O1
2. Cl.Cl.Nc1ncnc2c1c(-c1cccc(OCc3ccccc3)c1)cn2[C@H]1C[C@@H](CN2CCC2)C1
3. CC(=O)c1cc(-c2cc(C(=O)NC3CC3)ccc2C)c2ncccn12
4. CNc1oc(-c2cccc3ccccc23)nc1C#N

Response:
48
96
87
81

Dear colleague, could you please provide Population Apoptotic (%) for the compounds listed below?
1. Cc1nc(Cc2cccc(C(F)(F)F)c2)sc1-c1ccc(C(N)=O)nc1 [TP-024n]
2. CC(C)Oc1ccc(C(=O)N[C@H](CNC(=O)CN(C)C)Cc2ccc(-c3cn4cccc([C@H](C)O)c4n3)cc2)cc1Cl [GSK-923295A]
3. COc1cc2c(NC3CCN(C(C)C)CC3)nc(N3CCC(F)(F)CC3)nc2cc1OCCCN1CCCC1
4. O=C(O)c1ccc2cc(-c3ccc(O)c(C45CC6CC(CC(C6)C4)C5)c3)ccc2c1
5. Nc1ccc(C(=O)Nc2cccc(-c3nc(N4CCOCC4)c4oc5ncccc5c4n3)c2)cn1

Response:
1. 72
2. 73
3. 92
4. 90
5. 91

---

test system: U2OS; experiment: Multiplex assay against U2OS; type: toxicity, cell-based; details: human, 24 h, 1 µM, compound concentration 1 uM, replicate 1
Could you please report measured Population Normal (%) for the items listed next?
Numbers only, in %.

Worked examples follow.
Prompt: Which Population Normal (%) value belongs to CN(C)C/C=C/C(=O)Nc1cc2c(Nc3ccc(F)c(Cl)c3)ncnc2cc1O[C@H]1CCOC1.O=C(O)/C=C\C(=O)O.O=C(O)/C=C\C(=O)O [AFATINIB DIMALEATE] ?
Response: 98

Prompt: Which Population Normal (%) value belongs to CNC(=O)c1nn(C)c2c1C(C)(C)Cc1cnc(Nc3ccc(N4CCN(C)CC4)cc3)nc1-2 [MILCICLIB] ?
Response: 88

Next:
Prompt: Which Population Normal (%) value belongs to CCc1cc2c(cc1CC)CC(NC[C@H](O)c1ccc(O)c3[nH]c(=O)ccc13)C2 [INDACATEROL] ?
Response: 93

---

test system: HEK-293T; test: Multiplex assay against HEK293T; assay type: toxicity, cell-based; details: human, 12 h, 10 µM, compound concentration 10 uM, replicate 2
QUANTITY KIND: Population Hoechst High Intensity Objects (%)

Worked examples follow.
Prompt: Which Population Hoechst High Intensity Objects (%) value belongs to "COc1cc2c(Nc3ccc(NC(=O)c4ccccc4)cc3)ncnc2cc1OCCCN1CCOCC1" ?
Response: 2%

Prompt: Which Population Hoechst High Intensity Objects (%) value belongs to CCC(=O)O[C@]1(C(=O)SCF)[C@H](C)C[C@H]2[C@@H]3C[C@H](F)C4=CC(=O)C=C[C@]4(C)[C@@]3(F)[C@@H](O)C[C@@]21C [FLUTICASONE PROPIONATE] ?
Response: 6%

Prompt: Which Population Hoechst High Intensity Objects (%) value belongs to "Cc1cn(-c2cc(NC(=O)c3ccc4c(c3)CN(c3cncnc3)C[C@@H]4C)cc(C(F)(F)F)c2)cn1" ?
Response: 4%

Prompt: Which Population Hoechst High Intensity Objects (%) value belongs to "COc1cc2c(NC3CCN(C(C)C)CC3)nc(N3CCC(F)(F)CC3)nc2cc1OCCCN1CCCC1" ?
Response: 6%

Prompt: Which Population Hoechst High Intensity Objects (%) value belongs to "CCOc1cc2ncc(C#N)c(Nc3ccc(OCc4cccc(F)c4)c(Cl)c3)c2cc1NC(=O)/C=C/CN(C)C" ?
Response: 2%

Prompt: Which Population Hoechst High Intensity Objects (%) value belongs to "CC(C)(C)c1cnc(CSc2cnc(NC(=O)C3CCNCC3)s2)o1" ?
Response: 10%

Prompt: Which Population Hoechst High Intensity Objects (%) value belongs to "CNC(=O)c1cc(Oc2ccc(NC(=O)Nc3cc(C(C)(C)C)nn3-c3ccc4ncccc4c3)c(F)c2)ccn1" ?
Response: 6%

Prompt: Which Population Hoechst High Intensity Objects (%) value belongs to "CCOc1cc(N2CCC(O)CC2)ccc1Nc1ncc2c(n1)N(C1CCCC1)CCC(=O)N2C" ?
Response: 1%

Prompt: Which Population Hoechst High Intensity Objects (%) value belongs to "CNc1oc(-c2cccc3ccccc23)nc1C#N" ?
Response: 47%

Prompt: Which Population Hoechst High Intensity Objects (%) value belongs to Cc1nc(Cc2cccc(C(F)(F)F)c2)sc1-c1ccc(C(N)=O)nc1 [TP-024n] ?
Response: 9%

Dear colleague, could you please provide Population Hoechst High Intensity Objects (%) for the molecules listed below?
1. c1ccc2oc(-c3csc(C4CCN(Cc5nc6ncccc6[nH]5)CC4)n3)cc2c1
2. Cl.Cl.Nc1ncnc2c1c(-c1cccc(OCc3ccccc3)c1)cn2[C@H]1C[C@@H](CN2CCC2)C1

Response:
3%
23%

Dear colleague, could you please provide Population Hoechst High Intensity Objects (%) for the molecules listed below?
1. COc1ccc(NS(=O)(=O)c2sc3ccc(Cl)cc3c2C)cc1N1CCNCC1.Cl
2. Nc1nc2c(c(N3CCNCC3)n1)CCC1=C2[C@@H]2CCCC[C@@H]2O1
3. CCCn1c(=O)c2[nH]c(C34CC5CC(CC3C5)C4)nc2n(CCC)c1=O

Response:
1. 4%
2. 7%
3. 9%

Dear colleague, could you please provide Population Hoechst High Intensity Objects (%) for the molecules listed below?
1. N#Cc1cnc(Nc2cc(NC[C@H]3CNCCO3)c(C(F)(F)F)cn2)cn1
2. CCc1cc2c(cc1CC)CC(NC[C@H](O)c1ccc(O)c3[nH]c(=O)ccc13)C2

Response:
3%
12%

---

tested on: U2OS; test: Incucyte cell viability with U2OS; assay type: toxicity, cell-based; settings: human, 12 h, 10 µM, compound concentration 10 uM, replicate number 1, timepoint 12 hours; note: filed as whole numbers so only -1 and 0 and 1 occur
QUANTITY KIND: Growth Rate

Worked examples follow.
Prompt: Which Growth Rate value belongs to "CC(=O)N1CCC(c2ccc(C(=O)NC3=NCCN3)cc2C(F)(F)F)CC1" ?
Response: 1

Prompt: Which Growth Rate value belongs to "CCN1CCN(Cc2ccc(NC(=O)c3ccc(C)c(Oc4ccnc5[nH]ccc45)c3)cc2C(F)(F)F)CC1.Cl.Cl.Cl.O" ?
Response: 0

Prompt: Which Growth Rate value belongs to "CN(C)C(=O)c1ccc(-c2cc(C(=O)N(C)C3CCCC3)no2)cc1O" ?
Response: 1

Dear colleague, could you please provide Growth Rate for the compounds listed below?
1. Cc1cc(C)c(N)c(C#Cc2cccc(F)c2)n1.Cl
2. COc1ccc(COc2ccc(Cc3cnc(N)nc3N)cc2OC)cc1 [GW632580X]
3. O=C(NC[C@H](O)CN1CCc2ccccc2C1)c1ccnc(NC2CCC2)c1
4. Nc1nc(NCc2ccccc2)nc(-c2cccc(CO)c2)n1

Response:
[0, 1, 0, 1]

Dear colleague, could you please provide Growth Rate for the compounds listed below?
1. Cc1cc(NC(=O)Nc2ccc(N(C)C)cc2)c2cc(F)cc(F)c2n1
2. FC(F)c1nc2ccccc2n1-c1nc(N2CCOCC2)nc(N2CCOCC2)n1

Response:
1. 0
2. 1
